Kindly supply the reported melting point values for the records listed here.
One number for each entry, in °C.

Look over these answered cases.
>>> print(df.to_string())
                                   molecule   measure_name  test_result
0  CC(C)(C)c1nc2cc(S(=O)(=O)c3cn[nH]c3)ccc2n1CCCC(F)(F)F  melting point        220.8
1  CC(C)(C)c1nc2cc(S(=O)(=O)C3CCNC3=O)ccc2n1CCCC(F)(F)F (centres unmarked)  melting point        208.7
2  CC(C)(C)c1nc2cc(S(=O)(=O)c3ccc(C#N)cc3)ccc2n1CCCC(F)(F)F  melting point        165.1
3  CC(C)(C)c1nc2cc(S(=O)(=O)C(C)(C)c3ccc(C#N)cc3)ccc2n1CCCCC(F)(F)F  melting point        187.6

Problem: State, in one line, measured melting point of CC(C)(C)c1nc2cc(S(=O)(=O)c3ccncc3)ccc2n1CCCC(F)(F)F
Solution: 155.4

====

system under test: human CB2 (hCB2) receptor (Homo sapiens, UniProt P34972)
Construct: expressed in transfected cells; host or cells: CHO-K1
Sequence (P34972 whole entry): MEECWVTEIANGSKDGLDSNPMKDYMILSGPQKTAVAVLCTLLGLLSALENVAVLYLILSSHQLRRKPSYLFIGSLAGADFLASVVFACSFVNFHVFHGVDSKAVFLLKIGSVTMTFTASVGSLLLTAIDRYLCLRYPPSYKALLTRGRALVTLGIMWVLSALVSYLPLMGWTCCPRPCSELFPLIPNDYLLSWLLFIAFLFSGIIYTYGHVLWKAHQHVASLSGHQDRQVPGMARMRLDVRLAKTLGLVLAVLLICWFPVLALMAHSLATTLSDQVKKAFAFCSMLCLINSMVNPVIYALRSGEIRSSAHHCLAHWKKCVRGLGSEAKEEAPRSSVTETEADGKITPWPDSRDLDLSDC
procedure details: Inhibition of forskolin-activated cAMP production upon activation of human CB2 receptor (HTRF assay, CHO-K1 cells)
Type: cell-based
test parameters: agonism; CHO-K1 cells stably transfected with hCB2; pEC50=-log(EC50); relative to WIN55212-2; read-out: CB-2 pEC50 (converted)
measure name: EC50 (nM)
Numbers only, in nM.

Look over these answered cases.
                                   compound                         system_under_test  measure_name  test_result
0  CC(C)(C)c1nc2cc(S(=O)(=O)C(C)(C)c3ccc(C#N)cc3)ccc2n1CCCCC(F)(F)F  human CB2 (hCB2) receptor (Homo sapiens, UniProt P34972)          EC50         1.58
1  CC(C)(C)c1nc2cc(Sc3cn[nH]c3)ccc2n1CCCC(F)(F)F  human CB2 (hCB2) receptor (Homo sapiens, UniProt P34972)          EC50        0.631

Please go through the list and note EC50 for each compound.
1. CC(C)(C)c1nc2cc(S(=O)(=O)c3ccncc3)ccc2n1CCCCC(F)(F)F
2. CC(C)(C)c1nc2cc(S(=O)(=O)C3CCNC3=O)ccc2n1CCCC(F)(F)F (centres unmarked)
3. COc1ccc(CSc2ccc3c(c2)nc(C(C)(C)C)n3CCCCC(F)(F)F)cc1

Solution:
1. 1.58
2. 2.51
3. 6.31

Please go through the list and note EC50 for each compound.
1. CC(C)(C)c1nc2cc(S(=O)(=O)CC3CC3)ccc2n1CCCCC(F)(F)F
2. CC(C)(C)c1nc2cc(S(=O)(=O)CC3CC3)ccc2n1CCCC(F)(F)F
3. CC(C)(C)c1nc2cc(S(=O)(=O)c3ccc(C#N)cc3)ccc2n1CCCC(F)(F)F

Solution:
1.58
1.26
0.398

====

system under test: human CB1 (hCB1) receptor (Homo sapiens, UniProt P21554)
Construct: expressed in transfected cells; host or cells: CHO-K1
Sequence (P21554 whole entry): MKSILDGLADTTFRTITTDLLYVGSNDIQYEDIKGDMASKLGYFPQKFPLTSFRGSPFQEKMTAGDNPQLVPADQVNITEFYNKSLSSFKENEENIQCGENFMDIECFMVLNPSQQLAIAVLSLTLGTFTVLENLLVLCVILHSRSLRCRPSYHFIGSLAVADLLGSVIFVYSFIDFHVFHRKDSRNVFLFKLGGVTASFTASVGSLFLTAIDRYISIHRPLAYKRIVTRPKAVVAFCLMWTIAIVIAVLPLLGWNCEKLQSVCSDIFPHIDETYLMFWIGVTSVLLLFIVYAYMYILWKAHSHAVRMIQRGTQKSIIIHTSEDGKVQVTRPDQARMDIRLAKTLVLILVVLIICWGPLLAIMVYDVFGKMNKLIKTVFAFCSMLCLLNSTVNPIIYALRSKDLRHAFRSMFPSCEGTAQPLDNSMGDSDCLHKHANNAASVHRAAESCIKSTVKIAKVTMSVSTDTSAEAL
procedure details: Inhibition of forskolin-activated cAMP production upon activation of human CB1 receptor (HTRF assay, CHO-K1 cells)
Type: cell-based
test parameters: agonism; CHO-K1 cells stably transfected with hCB1; pEC50=-log(EC50); relative to CP55490; read-out: CB-1 pEC50 (converted)
Please respond with true when measured EC50 is strictly beneath 200 nM, and with false in all other cases.

Study these solved cases before continuing.
>>> print(df.to_string())
                                   molecule  class
0  CC(C)(C)c1nc2cc(S(=O)(=O)C(F)(F)c3ccc(C#N)cc3)ccc2n1CCCCC(F)(F)F   true
1  CC(C)(C)c1nc2cc(SCC3CC3)ccc2n1CCCCC(F)(F)F   true
2  CC(C)(C)c1nc2cc(S(=O)(=O)Cc3ccc(C#N)cc3)ccc2n1CCCCC(F)(F)F  false
3  CC(C)(C)c1nc2cc(S(=O)(=O)c3ccc(C#N)cc3)ccc2n1CCCCC(F)(F)F   true
4  COc1ccc(CSc2ccc3c(c2)nc(C(C)(C)C)n3CCCC(F)(F)F)cc1  false
5  CC(C)(C)c1nc2cc(S(=O)(=O)C(C)(C)c3ccc(C#N)cc3)ccc2n1CCCCC(F)(F)F  false
6  CC(C)(C)c1nc2cc(S(=O)(=O)c3ccncc3)ccc2n1CCCC(F)(F)F  false
7  CC(C)(C)c1nc2cc(S(=O)(=O)C3CCNC3=O)ccc2n1CCCCC(F)(F)F (centres unmarked)  false
8  COc1ccc(CSc2ccc3c(c2)nc(C(C)(C)C)n3CCCCC(F)(F)F)cc1  false
9  CC(C)(C)c1nc2cc(S(=O)(=O)Cc3ccc(C(N)=O)cc3)ccc2n1CCCCC(F)(F)F   true

Problem: Quick check: EC50 of CC(C)(C)c1nc2cc([S+]([O-])c3ccc(C#N)cc3)ccc2n1CCCC(F)(F)F (centres unmarked) under 200 nM?
Solution: false

Problem: Quick check: EC50 of CC(C)(C)c1nc2cc(S(=O)(=O)c3cn[nH]c3)ccc2n1CCCC(F)(F)F under 200 nM?
Solution: false

Problem: Quick check: EC50 of CC(C)(C)c1nc2cc(S(=O)(=O)C3CCNC3=O)ccc2n1CCCC(F)(F)F (centres unmarked) under 200 nM?
Solution: false

Problem: Quick check: EC50 of CC(C)(C)c1nc2cc(S(=O)(=O)CC3CC3)ccc2n1CCCC(F)(F)F under 200 nM?
Solution: false

Problem: Quick check: EC50 of CC(C)(C)c1nc2cc(Sc3cn[nH]c3)ccc2n1CCCC(F)(F)F under 200 nM?
Solution: false

Problem: Quick check: EC50 of CC(C)(C)c1nc2cc(S(=O)(=O)c3ccc(C(N)=O)cc3)ccc2n1CCCC(F)(F)F under 200 nM?
Solution: false

Problem: Quick check: EC50 of CC(C)(C)c1nc2cc(S(=O)(=O)CC3CC3)ccc2n1CCCCC(F)(F)F under 200 nM?
Solution: true

Problem: Quick check: EC50 of CC(C)(C)c1nc2cc(S(=O)(=O)c3ccc(C#N)cc3)ccc2n1CCCC(F)(F)F under 200 nM?
Solution: true

Problem: Quick check: EC50 of CC(C)(C)c1nc2cc(Sc3ccc(C#N)cc3)ccc2n1CCCC(F)(F)F under 200 nM?
Solution: true
